Taken from patent US12139487B2.

# system under test: BRM (Homo sapiens)
# Construct: made in house; host or cells: High Five insect cells
# Sequence (P51531 whole entry): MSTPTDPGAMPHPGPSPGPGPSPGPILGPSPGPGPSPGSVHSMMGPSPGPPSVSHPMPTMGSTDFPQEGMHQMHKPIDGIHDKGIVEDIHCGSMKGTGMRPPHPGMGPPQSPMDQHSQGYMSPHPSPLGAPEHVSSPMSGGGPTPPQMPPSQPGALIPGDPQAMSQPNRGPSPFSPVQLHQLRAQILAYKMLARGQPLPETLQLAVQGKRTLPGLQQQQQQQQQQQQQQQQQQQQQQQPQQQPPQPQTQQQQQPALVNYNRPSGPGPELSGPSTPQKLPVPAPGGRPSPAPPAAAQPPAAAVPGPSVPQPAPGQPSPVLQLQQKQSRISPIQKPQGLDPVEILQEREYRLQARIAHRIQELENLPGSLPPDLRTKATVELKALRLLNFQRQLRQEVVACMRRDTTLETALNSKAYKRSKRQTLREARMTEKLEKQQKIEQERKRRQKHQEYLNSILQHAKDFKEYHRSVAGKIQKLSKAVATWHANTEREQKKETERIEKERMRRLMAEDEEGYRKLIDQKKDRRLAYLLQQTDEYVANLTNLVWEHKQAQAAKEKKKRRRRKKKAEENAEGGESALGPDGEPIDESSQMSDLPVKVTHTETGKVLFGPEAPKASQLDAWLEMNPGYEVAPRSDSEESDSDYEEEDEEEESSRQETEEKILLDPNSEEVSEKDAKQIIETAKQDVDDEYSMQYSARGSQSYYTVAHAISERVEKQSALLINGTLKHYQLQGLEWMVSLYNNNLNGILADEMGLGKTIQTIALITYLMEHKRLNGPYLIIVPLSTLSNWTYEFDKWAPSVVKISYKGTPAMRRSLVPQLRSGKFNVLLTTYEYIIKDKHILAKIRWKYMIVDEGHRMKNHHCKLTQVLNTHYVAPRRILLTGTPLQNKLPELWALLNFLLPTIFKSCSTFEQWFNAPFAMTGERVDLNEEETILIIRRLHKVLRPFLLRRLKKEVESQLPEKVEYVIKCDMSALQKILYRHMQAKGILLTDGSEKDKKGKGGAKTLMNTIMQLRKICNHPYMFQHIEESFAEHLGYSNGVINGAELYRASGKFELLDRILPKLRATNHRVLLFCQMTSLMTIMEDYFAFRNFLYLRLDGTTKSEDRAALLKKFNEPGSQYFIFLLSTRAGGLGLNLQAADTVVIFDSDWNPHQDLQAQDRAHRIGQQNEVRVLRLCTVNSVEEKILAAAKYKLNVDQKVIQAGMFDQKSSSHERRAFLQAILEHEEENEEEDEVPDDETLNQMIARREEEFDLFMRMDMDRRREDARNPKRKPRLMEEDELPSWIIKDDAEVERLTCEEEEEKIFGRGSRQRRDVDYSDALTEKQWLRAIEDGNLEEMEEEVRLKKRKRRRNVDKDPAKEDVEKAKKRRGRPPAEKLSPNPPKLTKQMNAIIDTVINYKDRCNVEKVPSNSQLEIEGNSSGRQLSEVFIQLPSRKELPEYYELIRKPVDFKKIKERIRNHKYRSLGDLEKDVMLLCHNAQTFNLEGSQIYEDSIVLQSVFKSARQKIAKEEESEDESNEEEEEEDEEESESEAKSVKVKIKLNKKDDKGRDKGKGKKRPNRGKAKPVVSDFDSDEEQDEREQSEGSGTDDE
# experimental details: ATPase catalytic activity assay (ADP-Glo), BRM
# Assay type: biochemical
# assay context: ATPase assay, selectivity BRG1/BRM, Table 10
test readout: Ratio (BRG1 IC50 (μM) divided by BRM IC50 (μM))

Use the examples below as a reference point.
O=C(NCc1cc2nc(N3CCOc4ccc(N5CCC(F)(F)C5)nc43)ccc2cn1)c1cc(F)c2c(c1)S(=O)(=O)[C@@H](F)CCO2 [Compound 119] = 10.33
CCOc1ccnc2c1OCCN2c1ccc2cnc(CNC(=O)c3cc(F)c4c(c3)S(=O)(=O)[C@@H](F)CCO4)cc2n1 [Compound 129] = 18.60
O=C(NCc1cc2cc(N3CCOc4cc(C(F)F)cnc43)ccc2cn1)c1cc(F)c2c(c1)S(=O)(=O)[C@@H](F)CCO2 [Compound 303] = 10.70
COc1nscc1-c1ccc2cnc(CNC(=O)c3cc(F)c4c(c3)S(=O)(=O)[C@@H](F)CCO4)cc2n1 [Compound 288] = 26.09

(a) O=C(NCc1cc2nc(N3CCOc4cc(C5(C(F)F)CC5)cnc43)ccc2cn1)c1cc(F)c2c(c1)S(=O)(=O)[C@@H](F)CCO2 [Compound 70]
(b) CO[C@H](C)COc1ccc2c(c1)N(c1ccc3cnc(CNC(=O)c4cc(F)c5c(c4)S(=O)(=O)[C@@H](F)CCO5)cc3n1)CCO2 [Compound 24]
API: POST /compare with a and b ; response names the item with higher Ratio (BRG1 IC50 (μM) divided by BRM IC50 (μM)). Selection: enter the item's label.
b
(b: 18.65, a: 12.79)
